Taken from patent US20220017636A1.

- testSystem: T1, MAGEB2 peptide … (SEQ ID NO: 1) complexed with HLA-A*02:01 on the cell surface (human)
- T1 construct: whole, on cells; also called pMAGE-HLA; MAGEB2 pMHC
- assayNotes: flow cytometry, peptide-loaded T2 cells;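 note: binding of single-chain Fv antibody constructs, raised in XenoMouse, to peptide-pulsed T2 cells measured by flow cytometry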
Reported Signal/background values follow for various binders
Could you keep your reply to the number by itself?

- binder: "18182-G2 (scFv, scFv in bacterial lysate, detected with anti-Flag M2) scFv: EVQLLESGGGLVQPGGSLRLSCAASGFTFSSHAMSWVRQAPGKGLEWVSAISGSGGGTYNADSVKGRFTISRDNSKNTLYLQMNSLRAEDTAAYYCVTGKGVHLGFDYWGQGTLVTVSSGGGGSGGGGSGGGGSELVLTQPPSVSVAPGQTARITCGGNNIGSKSVHWYQQKPGQAPVMVVYDDNDRPSGIPERFSGSNSGNTATLTISRVEAGDEADYYCQVWDSSSDHVIFGGGTKLTVL"
  quantity: "Signal/background"
  recordedMeasurement: 320
- binder: "18179-B12 (scFv, scFv in bacterial lysate, detected with anti-Flag M2) scFv: EVQLLESGGGLVQPGGSLRLSCAASGFTFSNAWMSWVRQAPGKGLEWVGRIKGNTYGGTTDYAAPVKGRFTISRDDSKNTLFLQMNSLKTEDTAVYYCTTPSNSGSYYNYFSVMDVWGQGTTVTVSSGGGGSGGGGSGGGGSELVMTQSPSSLSASVGDRVTITCRTSQSISSYLNWFQQKPGKAPKLLIFAASSLQSGVPSRFSGSGSGTDFTLTISSLQPEDFATYYCQQTYSMPFTFGPGTKVEIK"
  quantity: "Signal/background"
  recordedMeasurement: 368
- binder: "18181-F1 (scFv, scFv in bacterial lysate, detected with anti-Flag M2) scFv: EVQLLESGGGLVKPGGSLRLSCAASGFTFSNAWMSWVRQAPGKGLEWVGRIKGNTYGGTTDYAAPVKGRFTISRDDSKNTLFLQMNSLKTEDTAVYYCTTPSYSGSYYNYFSVMDVWGQGTTVTVSSGGGGSGGGGSGGGGSELVMTQSPSSLSASVGDRVTITCRTSQSISSYLNWYQQKPGRAPKLLIFAASSLQGGVPSRFSGSGSGTDFTLTISSLQPEDFATYYCQQTYSSPFTFGPGTKLEIK"
  quantity: "Signal/background"
  recordedMeasurement: 443
- binder: "18182-A4 (scFv, scFv in bacterial lysate, detected with anti-Flag M2) scFv: EVQLLESGGGVVQPGRSLRLSCAASGFTFSSYAMTWVRQAPGQGLEWVSSISGSGGGTYYAASVKGRFTISRDNSKNTLYLQMNSLRAEDTAVYYCATGKGVHLGFDYWGQGTLVTVSSGGGGSGGGGSGGGGSELVLTQPPSVSVAPGQTARITCGGNNIGSKSVHWYQQKPGQAPVLVVYDDNDRPSGIPERFSGSNFGNTATLIISRVAAGDEADYYCQVWDSSSDHVVFGGGTKLTVL"
  quantity: "Signal/background"
  recordedMeasurement: 202

What measured Signal/background goes with 18182-H12 (scFv, scFv in bacterial lysate, detected with anti-Flag M2) scFv: EVQLLESGGGLVQPGGSLRLSCAASGFTFSSYAMSWVRQAPGKGLEWVSTISGSGGGTYYADSVKGRFTISRDNSKNTLYLQMNSLRAEDTAVYYCATGKGVHLGFDYWGQGTLVTVSSGGGGSGGGGSGGGGSELMLTQPHSVSVAPGQTARITCGGNNIGSKSVHWYQQKPGQAPVLVVYDDNDRPSGIPERFSGSNFGNTATLIISRVEAGDEADYYCQVWDSSSDHVVFGGGTKLTVL ?
298
